- Tested on: P388 leukemia ip, CD2F1 mice, survival T/C
- method.notes: NCI In Vivo Anticancer Drug Screen. Data for tumor model P388 Leukemia (intraperitoneal) in CD2F1 (CDF1) mice
- recorded.conditions: endpoint: median survival time; dose: 50.0 mg/kg/injection; schedule: Q01DX009 (ip); vehicle: other; higher = longer survival
- Procedure: The antitumor activity of compounds was measured in mice bearing transplantable tumors. Survival or tumor size were measured and the results are expressed as the measurement made in the treated group (T) divided by the measurement made in the vehicle treated control group (C). The tumor model used in this assay is P388 Leukemia (intraperitoneal) in CD2F1 (CDF1) mice
Toxic doses and inconclusive results are not listed. Square brackets hold non-standard residues; d marks the D form. Peptide text beside a SMILES is read from it. * marks the point of attachment. ξ: configuration not given here. Nphe = O=C(O)CNCc1ccccc1; ξL = CC(C)CC(N)C(=O)O; Ms = CS(=O)(=O)*

{"molecule": "COc1ccc(-c2nccc3cc(OC)c(OC)cc23)cc1O", "T/C": "86 % of control"}
{"molecule": "COc1cccc2c1C(=O)c1c(O)c3c(c(O)c1C2=O)C[C@@](O)(C(=O)CO)C[C@@H]3OC1CC(NC(=O)CN)C(O)C(C)O1 (some centres undefined)", "T/C": "94 % of control"}
{"molecule": "CC(C)CC(NC(=O)CN(Cc1ccccc1)S(C)(=O)=O)C(=O)O (centres undefined) (Ms-[Nphe]-[ξL]-OH)", "T/C": "114 % of control"}
{"molecule": "CCSC(SCC)C(NC(C)=O)C(OC(C)=O)C(OC(C)=O)C(COC(C)=O)OC(C)=O (centres undefined)", "T/C": "95 % of control"}
{"molecule": "COc1ccc(CCNC(=O)Cc2ccc(OC)c(OCc3ccccc3)c2)cc1OC", "T/C": "95 % of control"}
{"molecule": "COc1cc2c(cc1OC)C(Cc1cc(OC)c(OC)cc1[N+](=O)[O-])=[N+](C)CC2", "T/C": "96 % of control"}
{"molecule": "Cc1ccc(S(=O)(=O)NC(CC(N)=O)C(=O)O)cc1 (centres undefined)", "T/C": "100 % of control"}
{"molecule": "COC1CC(=O)C2OC(c3ccccc3)OCC2O1 (centres undefined)", "T/C": "99 % of control"}
{"molecule": "Nc1cccnc1C1OCCO1", "T/C": "100 % of control"}
